# Test system: SEM cells
# Protocol Details: cell viability relative to DMSO control; higher = less cytotoxic
# Condition Set: HPLM + 10% dialyzed FBS; 48 h; 0.0211 µM
Measured cell viability values are reported for all entries that follow.
Only the number, expressed in %, is required.

// solved cases for cell viability follow
[
  {
    "Compound": "C[S+]([O-])c1ccc(-c2nc(-c3ccc(F)cc3)c(-c3ccncc3)[nH]2)cc1 (stereo not given)",
    "cell viability, %": 84
  },
  {
    "Compound": "O=c1[nH]cnc2c1ncn2[C@H]1CC[C@@H](CO)O1",
    "cell viability, %": 102
  },
  {
    "Compound": "COC(=O)/C=C/C(=O)OC",
    "cell viability, %": 119
  },
  {
    "Compound": "COc1cc2ncnc(Nc3cccc(Br)c3)c2cc1OC",
    "cell viability, %": 94.7
  },
  {
    "Compound": "CCN(C)C(=O)Oc1cccc([C@H](C)N(C)C)c1",
    "cell viability, %": 125
  },
  {
    "Compound": "NC\\1=N\\C(=O)N(\\C=C1)[C@H]\\2[C@H](O)[C@H](O)C(=C2F)\\CO",
    "cell viability, %": 103
  },
  {
    "Compound": "CCCCN(CCCC)C(=O)CN1C[C@H](c2ccc3c(c2)OCO3)[C@@H](C(=O)O)[C@@H]1c1ccc(OC)cc1",
    "cell viability, %": 98.2
  },
  {
    "Compound": "COC1=CC2=C(C=C1OC)[C@H]3[C@@H](CO2)OC4=C(C=CC5=C4\\C=C/C(C)(C)O5)C3=O",
    "cell viability, %": 96.8
  },
  {
    "Compound": "CC(=O)OC\\C1=C(\\[N@]2[C@@H](SC1)[C@H](N)C2=O)C(O)=O",
    "cell viability, %": 120
  }
]

Which cell viability is reported for this compound? CN[S+](=O)([O-])CCc1ccc2[nH]cc(C3CCN(C)CC3)c2c1
98.7

---

# Test system: NOMO1
# Protocol Details: AUC of viability dose-response curve (% viability x log10 dose units); higher = less sensitive
# Condition Set: HPLM + 10% dialyzed FBS; 48 h
Measured Parameter: AUC of viability dose-response curve

Quick one: AUC of viability dose-response curve for N\C1=N\C2=C(N=C[N]2COC(CO)CO)C(=O)N1 ?
445

Which AUC of viability dose-response curve value is on record for C[N+](C)([O-])CCNc1ccc(NCC[N+](C)(C)[O-])c2c1C(=O)c1c(O)ccc(O)c1C2=O ?
383

Fill blank: measured AUC of viability dose-response curve of the compound CCN(C)C(=O)Oc1cccc([C@H](C)N(C)C)c1 is ____.
451

Param item = C#Cc1cccc(Nc2ncnc3cc(OC)c(OCCCCCCC(=O)NO)cc23)c1 ; retrieve measured AUC of viability dose-response curve.
276

For the compound CC(C)(C)NC(=O)[C@H]1CC[C@H]2[C@@H]3CC[C@H]4NC(=O)\C=C/[C@]4(C)[C@H]3CC[C@]12C , what AUC of viability dose-response curve is on record?
382

---

# Tested on: SEM cells
# Protocol Details: cell viability relative to DMSO control; higher = less cytotoxic
# Condition Set: RPMI 5 mM glucose + 10% dialyzed FBS; 48 h; 0.00234 µM
Measured Parameter: cell viability (%)
The reply should be a number in %, with the unit left off.

These solved cases illustrate the format of a correct answer.
[
  {
    "Compound Smiles": "CCN(C)C(=O)Oc1cccc([C@H](C)N(C)C)c1",
    "cell viability [%]": 100
  },
  {
    "Compound Smiles": "CC(C)(C)c1cc(C(=O)O)c(NC(=O)Nc2ccc3[nH]ncc3c2)s1",
    "cell viability [%]": 93.1
  }
]

Attention now turns to another entry.
Entry C#Cc1cccc(Nc2ncnc3cc(OC)c(OCCCCCCC(=O)NO)cc23)c1 : reported cell viability = ?
123

---

# System: NOMO1
# Protocol Details: cell viability relative to DMSO control; higher = less cytotoxic
# Condition Set: RPMI 5 mM glucose + 10% FBS; 48 h; 0.0632 µM
Documented cell viability across a set of compounds
Field: numeric (%). Do not append units.

[
  {
    "Compound Smiles": "OC(COC1=C2C(=O)\\C=C(/OC2=CC=C1)C([O-])=O)COC3=C4C(=O)\\C=C(/OC4=CC=C3)C([O-])=O",
    "Assayed Target": "NOMO1",
    "Endpoint Result": 80.4
  }
]

For the compound Cc1c(C(=O)Nc2cccc(C(F)(F)F)c2)cc(-c2ccccc2)n1CCCN1CCOCC1 , what cell viability is on record?
102

Which cell viability is listed for CCNC(=O)[C@H]1O[C@@H](n2cnc3c(N)nc(NCCc4ccc(CCC(=O)O)cc4)nc32)[C@H](O)[C@@H]1O ?
89.4

Need cell viability of Oc1cc(O)cc(/C=C/c2ccc(O)c(O)c2)c1 , thanks.
91.9

Look up cell viability: Cc1cn(CCN2CCN(c3ccccc3-c3cc(C#N)cc(C(=O)NCCCN4CCCC4)c3)CC2)c2ccccc12
125

cell viability for Cc1ccc(-c2ncn(-c3ccc(Nc4nccc(-c5cccc(N6CCOCC6)c5)n4)cc3)n2)cn1 ?
86.4

---

A collection of compounds and their measured cell viability
# Tested on: NOMO1
# Protocol Details: cell viability relative to DMSO control; higher = less cytotoxic
# Condition Set: RPMI 5 mM glucose + 10% dialyzed FBS; 48 h; 0.00702 µM
Note: unit % is implicit; provide only the numeric part.

Below, 4 compounds whose answers are already recorded.
[
  {
    "Compound": "CC(C)(C)c1cc(C(=O)O)c(NC(=O)Nc2ccc3[nH]ncc3c2)s1",
    "Measurement Units": "%",
    "cell viability": 84
  },
  {
    "Compound": "O=C1CCc2ccc(OCCCCN3CCN(c4cccc(Cl)c4Cl)CC3)cc2N1",
    "Measurement Units": "%",
    "cell viability": 97.7
  },
  {
    "Compound": "CCNc1cc(NC2CCC(O)CC2)nc(Nc2ccc3c(ccn3Cc3ccccc3)c2)n1 (centres undefined)",
    "Measurement Units": "%",
    "cell viability": 124
  },
  {
    "Compound": "O=C1NC(O)CCN1[C@@H]1O[C@H](CO)[C@@H](O)[C@H]1O (some centres undefined)",
    "Measurement Units": "%",
    "cell viability": 113
  }
]

Dear colleague, I am looking for the recorded cell viability of the following compound: O=C(CCCCCCC(=O)Nc1ccccc1)NO
102

Looking for the measured cell viability of CC(=O)O[C@@]12CO[C@@H]1C[C@H](O)[C@]3(C)[C@@H]2[C@H](OC(=O)C4=CC=CC=C4)[C@]5(O)C[C@H](OC(=O)C(O)[C@@H](NC(=O)OC(C)(C)C)C6=CC=CC=C6)C(=C(/[C@@H](O)C3=O)C5(C)C)/C (some centres undefined) , can you help?
27.8

Reported cell viability for COc1ccc(Nc2cc(-c3cnc(N)nc3)nc(N3CCOCC3)n2)cn1 : what is it?
85.3

Given the entry NC(=O)c1cccc(N)c1 , report its measured cell viability.
114

For the compound shown here, Cc1cc(Cl)ccc1OCCCC(=O)NO , give the reported cell viability.
101

---

# Test system: SEM cells
# Protocol Details: AUC of viability dose-response curve (% viability x log10 dose units); higher = less sensitive
# Condition Set: RPMI 5 mM glucose + 10% FBS; 48 h
Measured Parameter: AUC of viability dose-response curve
// return a plain number; no unit text

Example entries begin here.
[
  {
    "Compound": "CN(C)CC/C=C1/c2ccccc2COc2ccc(CC(=O)O)cc21",
    "AUC of viability dose-response curve": 454
  },
  {
    "Compound": "COC1(C[S+]([O-])c2ccccc2)CCN(CCc2c[nH]c3ccc(F)cc23)CC1 (stereo unspecified)",
    "AUC of viability dose-response curve": 471
  },
  {
    "Compound": "CO[C@@H]1C(N(C)C(=O)c2ccccc2)C[C@H]2O[C@]1(C)n1c3ccccc3c3c4c(c5c6ccccc6n2c5c31)C(=O)NC4=O (stereo partly specified)",
    "AUC of viability dose-response curve": 289
  },
  {
    "Compound": "COc1cc2ncnc(Nc3cccc(Br)c3)c2cc1OC",
    "AUC of viability dose-response curve": 460
  },
  {
    "Compound": "CN(C)c1ccc(Nc2nc(N)n(C(=O)c3c(F)cccc3F)n2)cc1",
    "AUC of viability dose-response curve": 361
  },
  {
    "Compound": "O=[N+]([O-])c1cnc(Sc2nnc(O)n2-c2ccc3c(c2)OCCO3)s1",
    "AUC of viability dose-response curve": 342
  },
  {
    "Compound": "CN(C)c1ccc2cc(C(=O)N[C@@H](CCCNC(=N)CCl)C(=O)NCc3ccccc3)ccc2c1",
    "AUC of viability dose-response curve": 434
  },
  {
    "Compound": "N[C@@H](CC(=O)N1CCn2c(nnc2C(F)(F)F)C1)Cc1cc(F)c(F)cc1F",
    "AUC of viability dose-response curve": 453
  }
]

Give AUC of viability dose-response curve (SEM cells) of the following compound: CC[C@@]1([C@@H]2O[C@@H]([C@H]3O[C@@](O)(CO)[C@H](C)C[C@@H]3C)C[C@@H]2C)CC[C@H]([C@]2(C)CC[C@]3(C[C@H](O)[C@@H](C)[C@@H]([C@@H](C)[C@@H](OC)[C@H](C)C(=O)[O-])O3)O2)O1
324

// lookup AUC of viability dose-response curve | system=SEM cells | key= O=C1N\2CCC3=C([NH]C4=C3C=CC=C4)C2=N/C5=CC=CC=C15
456

Lookup: AUC of viability dose-response curve / SEM cells / COc1cc(-c2nn(C3CCC(N4CCN(C(C)=O)CC4)CC3)c3ncnc(N)c23)ccc1NC(=O)c1cc2ccccc2n1C (stereo unspecified)
468

API: value(readout=AUC of viability dose-response curve, system=SEM cells) for record C#C[C@]1(O)CC[C@H]2[C@@H]3CCc4cc(OC)ccc4[C@H]3CC[C@@]21C
470

Return AUC of viability dose-response curve measured with SEM cells given this compound: CNCC(O)C(O)C(O)C(O)CO.O=C(O)c1ccc(-c2cc3cccnc3c(-c3ccc4nonc4c3)n2)cc1
472

Param readout= AUC of viability dose-response curve; system= SEM cells; entry= CN(C)CCCNC(=O)c1ccc(-c2cc(O)c3ncccc3c2)cc1 ; returns value.
442

Please provide the recorded AUC of viability dose-response curve for CCCCCCCCc1ccc(CCC(N)(CO)CO)cc1 , tested on SEM cells.
452

Query for SEM cells: what AUC of viability dose-response curve does the record show for CN(C)C[C@@H]1CC[N]2C=C(C3=C2C=CC=C3)C/4=C(/C(=O)NC4=O)C5=C[N](CCO1)C6=C5C=CC=C6 ?
412
